Method description: A CellTox Green Cytotoxicity Assay to monitor cytotoxicity in HepG2 cells - 24 hour (AID 1224878); note: % is set by controls: 0 for no effect and ±100 for the full control effect; nearly all actives have a fitted effect of over 45% in size
Assay conditions: CellTox Green fluorescence; series mostly up to 76.8 µM
Inconclusive results are not listed. Active and inactive are the calls of the source. Calls come from the whole dose curve; as a rule, active = well fitted activation curve with a large enough effect in the repeat runs; inconclusive = weak or mixed curves; inactive = flat fitted curve, though single readings scatter.
Measurement name: cytotoxicity

{"Molecule": "O=S(O)CO", "Result": "inactive"}
{"Molecule": "NC(=O)Nc1ccccc1", "Result": "inactive"}
{"Molecule": "CC[N+](C)(C)c1cccc(O)c1", "Result": "inactive"}
{"Molecule": "Cn1c(N)c(N=O)c(=O)n(C)c1=O", "Result": "inactive"}
{"Molecule": "CCCCC/C=C\\CCC=O", "Result": "inactive"}
{"Molecule": "CCC(=O)OC(C)c1ccccc1 (stereo unspecified)", "Result": "inactive"}
{"Molecule": "CC(C)=CCCC(C)CC(=O)O (stereo unspecified)", "Result": "inactive"}
{"Molecule": "COC(=O)CC(C)=O", "Result": "inactive"}
{"Molecule": "NS(=O)(=O)c1cc2c(cc1Cl)NC(C1CC3C=CC1C3)NS2(=O)=O (stereo unspecified)", "Result": "inactive"}
{"Molecule": "Cc1cccn2c(=O)c(-c3nnn[nH]3)cnc12", "Result": "3.1% [at 15.8 µM] (inactive)"}
{"Molecule": "O=C1CCCC(=O)C1", "Result": "inactive"}
{"Molecule": "O=Cc1cccc([N+](=O)[O-])c1", "Result": "inactive"}
{"Molecule": "O=[N+]([O-])c1ccc(F)cc1F", "Result": "inactive"}
{"Molecule": "CN(C)CCCNCCCN(C)C", "Result": "inactive"}
{"Molecule": "Cc1cnc(NS(=O)(=O)c2ccc(N)cc2)nc1", "Result": "inactive"}
{"Molecule": "CCC(C)C1CCCCC1=O (stereo unspecified)", "Result": "inactive"}
